Provide the recorded normalized growth for the entries that follow.
assay: chemical genetic growth profiling, strain panel (AID 1159580);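 also: tested at 20 µM; growth read once vehicle control cultures reached saturation at 30 °C; 1 = growth at the plate median or of vehicle wells; lower values mean less growth of the strain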; details: S. cerevisiae deletion strains, growth OD, locus YJL187C, strain SWE1 (second series), active compounds read low
In all, about 5,500 compounds went through this assay and about 2,000 (36%) were called active. Another 18% or so got no clear call; they are omitted. The list shows a part of the results.

Example compounds with recorded normalized growth:
compound: Cc1coc2ccccc2c1=O
normalized growth: 1 (inactive)

compound: CC(=O)O[C@@H]1CC2C(C)(C)[C@H](O)C[C@H](O)[C@]2(C)C2CC[C@@]3(C)[C@H](c4ccoc4)OC(=O)[C@H]4O[C@]43[C@@]21C (stereo partly specified)
normalized growth: 1.02 (inactive)

compound: C=C1C2CC[C@@]3(C)[C@H](c4ccoc4)OC(=O)C[C@]13O[C@H]1CC(=O)C(C)(C)[C@H](C(O)C(=O)OC)[C@@]21C (stereo partly specified)
normalized growth: 1.01 (inactive)

compound: CCC1C2CC3C4N(C)c5ccccc5C45CC(C2C5OC(C)=O)N3C1OC(C)=O (stereo unspecified)
normalized growth: 1.01 (inactive)

compound: CC(=O)OC1CC2C(C)(C)CCCC2(C)C2CCC3(C)C(c4ccoc4)OC(=O)C4OC43C12C (stereo unspecified)
normalized growth: 0.999 (inactive)

# evaluate next
What value of normalized growth has been reported for the following compound? O=c1oc2ccccc2c(O)c1Cc1c(O)c2ccccc2oc1=O 1 (inactive)

====

experiment: chemical genetic growth profiling, strain panel (AID 1159580); conditions: S. cerevisiae deletion strains, growth OD, locus YDR195W, strain ref2
Among all 5,500 compounds or so, about 2,000 (36%) were called active. Another 18% or so got no clear call; they are omitted. The list shows a part of the results.
measure.name: normalized growth

Example compounds with recorded normalized growth:
compound: CC(=O)OCC(=O)[C@@]1(O)CCC2C3CC[C@@H]4C[C@H](O)CC[C@]4(C)C3C(=O)C[C@@]21C (some centres undefined)
observed.measurement: 0.988 (inactive)
//
compound: CCC(CCC(C)[C@H]1CCC2C3CC=C4C[C@@H](O)CC[C@]4(C)C3CC[C@@]21C)C(C)C (some centres undefined)
observed.measurement: 1.03 (inactive)
//
compound: CC(=O)Nc1ccc(O)cc1
observed.measurement: 1.01 (inactive)
//
compound: COc1ccc(-c2cc(=O)c3c(O)c(OC)c(OC)c(OC)c3o2)cc1
observed.measurement: 0.953 (inactive)
//
compound: COc1ccc(-c2cc(=O)c3cc(OC)ccc3o2)cc1
observed.measurement: 1.04 (inactive)
//
compound: CN(N=O)C(=O)N[C@@H]1[C@@H](O)[C@H](O)[C@@H](CO)O[C@@H]1O
observed.measurement: 0.988 (inactive)
//
compound: CC[C@]12C=CCN3CC[C@@]4(c5ccc(OC)cc5N(C)C4[C@@](O)(C(=O)OC)[C@@H]1OC(C)=O)[C@@H]32 (some centres undefined)
observed.measurement: 1.01 (inactive)
//
compound: Nc1ccc(C(=O)Oc2ccccc2)c(O)c1
observed.measurement: 1.04 (inactive)

Okay, here is my list. What is normalized growth for each of these?
1. CC(=O)Nc1ccc(OC(=O)c2ccccc2O)cc1
2. COc1ccc(-c2cc(=O)c3c(OC)c(OC)c(OC)c(OC)c3o2)cc1
3. C[C@@H]1CC[C@@]2(OC1)OC1C(O)C3C4CC[C@H]5C[C@H](O[C@@H]6O[C@H](CO)[C@H](O[C@@H]7O[C@H](CO)[C@@H](O)[C@H](O[C@@H]8OC[C@@H](O)[C@H](O)[C@H]8O)[C@H]7O[C@@H]7O[C@H](CO)[C@H](O)[C@H](O[C@@H]8O[C@H](CO)[C@@H](O)[C@H](O)[C@H]8O)[C@H]7O)[C@H](O)[C@H]6O)[C@H](O)C[C@]5(C)C4CC[C@]3(C)C1[C@@H]2C (some centres undefined)
4. COc1cc2c3cc1Oc1cc(ccc1O)C[C@@H]1c4c(cc(OC)c(O)c4Oc4ccc(cc4)C[C@@H]3N(C)CC2)CC[N+]1(C)C
5. CC(=O)O.CC(=O)O.[Cd]
6. COc1ccc(-c2cc(=O)c3ccccc3o2)cc1

1. 1.15 [resistant] (active)
2. 1.05 (inactive)
3. 0.61 (active)
4. 1.01 (inactive)
5. 0.512 (active)
6. 1.3 [resistant] (active)

====

test: chemical genetic growth profiling, strain panel (AID 1159580); conditions: S. cerevisiae deletion strains, growth OD, locus YMR263W, strain SAP30
Among all 5,500 compounds or so, about 2,000 (36%) were called active. Not shown: some 18% with an inconclusive outcome. No stated cut-off is given here; in the data, active means normalized growth mostly below about 0.91 (no sharp cut-off); inconclusive means no clear call, values can overlap the other calls; inactive means mostly above about 0.92. Some of the results follow.
Answer with one of the outcomes y for active, n for inactive

Sample answers from the record:
compound: CCN(CC)CCNc1ccc(CO)c2sc3ccccc3c(=O)c12
discrete.label: n
//
compound: CC(=O)Oc1cc(-c2coc3cc(OC(C)=O)c(OC(C)=O)c(OC(C)=O)c3c2=O)cc(OC(C)=O)c1OC(C)=O
discrete.label: y

We next turn to a different compound, shown below.
Call for entry CC(=O)CC(c1ccccc1)c1c(O)c2ccccc2oc1=O (stereo not drawn) : n

====

test: chemical genetic growth profiling, strain panel (AID 1159580);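 also: tested at 20 µM; growth read once vehicle control cultures reached saturation at 30 °C; 1 = growth at the plate median or of vehicle wells; lower values mean less growth of the strain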; settings: S. cerevisiae deletion strains, growth OD, locus YAL013W, strain DEP1
The campaign covered roughly 5,500 compounds. About 2,000 (36%) were called active. Inconclusive results (about 18%) are left out. No stated cut-off is given here; in the data, active means normalized growth mostly below about 0.91 (no sharp cut-off); inconclusive means no clear call, values can overlap the other calls; inactive means mostly above about 0.92. The list shows a part of the results.
Answer with one of the outcomes active, inactive

Sample answers from the record:
sample.smiles: CNCCC=C1c2ccccc2CCc2ccccc21
discrete.label: inactive
--
sample.smiles: COc1cccc(-c2cc(=O)c3cc(OC)ccc3o2)c1
discrete.label: inactive
--
sample.smiles: Cc1cc(Br)c(OCC(=O)NN)c2c1CCC2
discrete.label: inactive
--
sample.smiles: O=C(N/N=C\c1ccccc1Cl)N/N=C\c1ccccc1Cl
discrete.label: active

Call for entry O=c1[nH]c(=O)n([C@H]2C[C@H](O)[C@@H](CO)O2)cc1/C=C/Br : inactive

Call for entry COc1c2c(cc3c1OCO3)CC[N+](C)=C2 : inactive

====

Provide the recorded normalized growth for the entries that follow.
test: chemical genetic growth profiling, strain panel (AID 1159580);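 also: tested at 20 µM; growth read once vehicle control cultures reached saturation at 30 °C; 1 = growth at the plate median or of vehicle wells; lower values mean less growth of the strain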; conditions: S. cerevisiae deletion strains, growth OD, locus YLR058C, strain SHM2, active compounds read low
Out of some 5,500 compounds screened, about 2,000 (36%) were called active. Another 18% or so got no clear call; they are omitted. The list shows a part of the results.
Answers are plain numbers.

compound: Clc1ccc(Cl)cc1
observed.measurement: 1.01
//
compound: CC(C)Oc1ccc2c(=O)cc(-c3ccccc3)oc2c1
observed.measurement: 0.915
//
compound: COc1ccc(-c2cc(=O)c3ccccc3o2)cc1
observed.measurement: 0.741
//
compound: C=CCCCCCCCCCCCC(O)CC(O)CO (stereo unspecified) (tested in a mixture with another compound)
observed.measurement: 0.301
//
compound: CSc1ccc2c(c1)C(N1CCN(C)CC1)Cc1ccccc1S2 (stereo unspecified)
observed.measurement: 0.77

What value of normalized growth has been reported for the following compound? CCN(CC)CCNc1ccc(CO)c2sc3ccccc3c(=O)c12 0.998

====

Provide the recorded normalized growth for the entries that follow.
assay: chemical genetic growth profiling, strain panel (AID 1159580);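 also: tested at 20 µM; growth read once vehicle control cultures reached saturation at 30 °C; 1 = growth at the plate median or of vehicle wells; lower values mean less growth of the strain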; conditions: S. cerevisiae deletion strains, growth OD, locus YFR028C, strain CDC14, active compounds read low
In all, about 5,500 compounds went through this assay and about 2,000 (36%) were called active. Roughly 18% stayed inconclusive and do not appear here. Some of the results follow.
One number for each entry.

Example compounds with recorded normalized growth:
compound: CC(C)(C)c1cc2nc(C(F)(F)F)cc(NNC(=O)c3ccc(Cl)cc3)n2n1
observed.measurement: 0.979

compound: O=C1c2ccccc2O[C@@H](c2ccccc2)[C@@H]1NC1CCCCC1
observed.measurement: 0.888

compound: O=C1Nc2ccccc2/C1=N/N=C\c1cc(Br)cc(Br)c1O
observed.measurement: 0.964

Okay, here is my list. What is normalized growth for each of these?
1. N=c1ccc2nc3c(Cl)c4c(c(Cl)c3oc-2c1S(=O)(=O)O)Nc1ccc(N)c(S(=O)(=O)O)c1O4
2. Clc1ccc(-c2csc(Nc3ccccc3)n2)s1
3. Cc1nc(-c2ccc(C(F)(F)F)cn2)[nH]c(=O)c1Cl
4. O=C1c2ccccc2O[C@@H](c2ccccc2)[C@@H]1NCc1ccccc1
5. O=C(NCc1cccs1)c1csc(Cc2c(Cl)cccc2Cl)n1
6. COc1ccc(C2CC(c3ccccc3)=Nc3ccccc3S2)cc1OC (stereo not given)

1.01
0.926
0.918
0.891
0.982
0.961

Okay, here is my list. What is normalized growth for each of these?
1. Clc1ccccc1N/N=C\Cc1nnnn1-c1ccccc1
2. CCC(C)Cn1c(Sc2ncc([N+](=O)[O-])s2)n[nH]c1=O (stereo not given)
3. CCCc1cnc(N2CCN(CC(=O)N(c3ccccc3)C3CCCCC3)CC2)nc1
4. Cc1ccc(C(O)(c2ccccc2)c2ccccc2)c2ccccc12
5. CCn1nc(C)cc1-c1nnc(Sc2ncc([N+](=O)[O-])s2)n1C
6. N/C(CSc1ccc(Cl)cc1)=N/OC(=O)c1ccc(C(F)(F)F)cc1

1: 0.957; 2: 0.888; 3: 0.999; 4: 0.979; 5: 0.968; 6: 0.86
